Reported activity change, negative = reduced viability by item:
- Test Name: qHTS for Inhibitors of the Functional Ribonucleoprotein Complex (vRNP) of Lassa (LASV) Arenavirus: Viability assay - alamar blue signal for LASV Primary Screen (AID 1347083); further: on the % scale 0 is the no-effect control and ±100 the full control effect; nearly all actives have a fitted effect of over 80% in size
- Measurement Conditions: cell viability, alamar blue fluorescence (LASV minigenome counter-screen); series mostly up to 57.5 µM
Records with an inconclusive call do not appear. Active and inactive are the calls of the source. The call rests on the fitted dose curve; tested in HEK293 reporter line.
Measured Attribute: activity change, negative = reduced viability

Input Smiles	Data Value
O=C(O)CCC[C@H](O)\C=C/C=C/C=C/[C@H](O)C/C=C\CCCCCO	2.93% [at 0.757 µM] (inactive)
C[C@@H](O)CCC[C@H](O)/C=C/[C@@H]1[C@@H](C/C=C\CCCC(=O)O)[C@@H](O)C[C@H]1O	-24.9% [at 0.757 µM] (inactive)
CCCCC/C=C\C/C=C\C=C\[C@@H](O)C/C=C\CCCC(=O)O	9.41% [at 0.757 µM] (inactive)
CCCCC[C@H](O)/C=C/C=C/C/C=C\CCCC(=O)O	-19.5% [at 0.757 µM] (inactive)
C=C/C(=C/C(=O)C[C@H](C)C[C@@H](C)CC[C@H](O)[C@H](C)C(=O)C[C@@H](O)[C@H](C)[C@@H](C)OC(=O)C[C@@H](O)C1=C(C)C(=O)OC1=O)CC	-113% [at 11.5 µM] (inactive)
C[C@]12O[C@H](C[C@@]1(O)C(=O)O)n1c3ccccc3c3c4c(c5c6ccccc6n2c5c31)CNC4=O	-37.8% [at 5.82 µM] (inactive)
CC/C=C\C[C@H](O)/C=C/C=C\C/C=C\C/C=C\CCCC(=O)O	19.4% [at 0.757 µM] (inactive)

---

- Test Name: P-glycoprotein substrates identified in KB-8-5-11 adenocarcinoma cell line, qHTS therapeutic library screen (AID 1346987); further: nearly all actives have a fitted effect of over 65% in size
- Measurement Conditions: KB-8-5-11 (P-gp overexpressing) viability, CellTiter-Glo, 72 h; series mostly up to 44.5 µM
Results filed as inconclusive are left out. The source made the active and inactive calls. Calls follow the shape of the dose curve; as a rule, active = well fitted inhibition curve with a large enough effect; inconclusive = small, poorly fitted or top-dose-only effect; inactive = flat fitted curve, though single readings scatter.
Measured Attribute: outcome

Compound	Measured Attribute	Data Value
C=C(CO)C(=O)O[C@H]1CC(=C)[C@@H]2C[C@H](O)C(=C)[C@@H]2[C@H]2OC(=O)C(=C)[C@@H]21	outcome	inactive
Oc1ccc2c3c1O[C@H]1[C@@H](O)C=C[C@H]4[C@H](C2)NCC[C@@]341	outcome	inactive
C/C=C1/CN2CC[C@]34C(=Nc5ccccc53)[C@@H]2C[C@@H]1[C@H]4C(=O)OC	outcome	inactive
CC(=O)[C@@]1(O)CC[C@H]2[C@@H]3CCC4=CC(=O)CC[C@]4(C)C3(F)[C@@H](O)C[C@@]21C (stereo partly drawn)	outcome	inactive
CCC(C)(O)C1(C(=O)O)COC(=O)C1 (stereo not drawn)	outcome	inactive
CNC(C)CC1CCCCC1 (stereo not drawn)	outcome	inactive
CC[C@H]1C2CC3[C@@H]4N(C)c5ccccc5[C@]45C[C@@H]([C@H]2[C@H]5O)N3[C@@H]1O	outcome	inactive
CC(=O)OC[C@]12[C@H](OC(C)=O)C(=O)[C@@H]3[C@@H](O)[C@@]14O[C@@]3(C)COC(=O)c1cccnc1[C@@H](C)[C@H](C)C(=O)O[C@@H]([C@H](OC(C)=O)[C@@H]2OC(C)=O)[C@]4(C)O	outcome	inactive

---

- Test Name: Primary qHTS to identify inhibitors of SARS-CoV-2 cell entry (AID 1645846); further: nearly all actives have a fitted effect of over 45% in size
- Measurement Conditions: SARS-CoV-2 pseudovirus cell entry assay, luminescence; at 57.1 µM (top of the series) unless noted
Inconclusive results are not listed. Peptide text beside a SMILES is read from it. * marks the point of attachment. Cbz = O=C(OCc1ccccc1)*
Below: a set of entries, each annotated with reported activity change, negative = inhibition.

Molecule	activity change, negative = inhibition
C[C@]12CC[C@H]3[C@@H](CCC4=CC(=O)CC[C@@]43C)[C@@H]1CC[C@@H]2OC(=O)CCc1ccccc1	-18.9%
Oc1cc2c(cc1O)C1c3ccc(O)c(O)c3OCC1(O)C2 (stereo unspecified)	-5.64%
CC[C@H](CC#N)OC(=O)N[C@@H](C)c1cccc(NC(=O)Nc2ccc(-c3cnco3)c(OC)c2)c1	-97.5%
Nc1ncnc2nc(-c3ccc(N4CCOCC4)nc3)cc(-c3cccc(Br)c3)c12	-21.9%
CC(C)C[C@@H](C=O)NC(=O)[C@H](CC(C)C)NC(=O)[C@H](CC(C)C)NC(=O)OCc1ccccc1 (Cbz-Leu-Leu-Leu-aldehyde)	-96.8%
Cn1cnc(=N)c2[nH]cnc21	-0.211% [at 114 µM]

---

- Test system: HaCat
- Test Name: Cytotoxic Profiling of Annotated Libraries Using Quantitative High-Throughput Screening (AID 1296008); further: on the % scale 0 is the no-effect control and ±100 the full control effect; nearly all actives have a fitted effect of over 60% in size
- Measurement Conditions: Five cell lines viability, CellTiter-Glo ATP luminescence, 48-72 h; stronger effect = lower value
Records with an inconclusive call do not appear.

Compound	Result Unit	max response
CN1C(=O)[C@@H](Cc2c[nH]c3ccccc23)N=C(c2ccccc2F)c2ccccc21	%	-23.4
C[N@@+]1(CC2CC2)CC[C@]23c4c5ccc(O)c4O[C@H]2C(=O)CC[C@@]3(O)[C@H]1C5	%	-19.5
CCOC(=O)c1ccc(-c2ccc(OC(=O)N(C)Cc3cccc(-c4ccncc4)c3)cc2)cc1	%	-8.03
CCOP(=O)(OCC)Oc1ccc2c(C)cc(=O)oc2c1	%	-15.5
C[C@H]1CC[C@@H]2[C@@H](C)[C@H]3[C@H](C[C@H]4[C@@H]5CC=C6CC(O[C@@H]7O[C@H](CO)[C@@H](O)[C@H](O[C@@H]8O[C@H](CO)[C@@H](O)[C@H](O)[C@H]8O)[C@@H]7O[C@@H]7O[C@@H](C)[C@H](O)[C@@H](O)[C@H]7O)CC[C@]6(C)[C@H]5CC[C@]34C)N2C1 (stereo partly specified)	%	-13.1
COC[C@]12CN(C)C3C4[C@H](OC)[C@H]1C3(C(OC)C[C@H]2O)[C@H]1C[C@@]2(O)[C@H](OC(=O)c3ccccc3)[C@@H]1[C@]4(O)[C@@H](O)[C@@H]2OC (stereo partly specified)	%	-14.8

---

Each entry below carries its recorded activity change, negative = inhibition.
- Test Name: Primary qHTS to identify inhibitors of SARS-CoV-2 cell entry (AID 1645846); further: nearly all actives have a fitted effect of over 45% in size
- Measurement Conditions: SARS-CoV-2 pseudovirus cell entry assay, luminescence; at 57.1 µM (top of the series) unless noted
Results filed as inconclusive are left out. Numbered stars: 1 amine (or outer) side, 2 acyl side, 3 side chain; on linkers, the order of the positions; unused ones are H or OH. Bridge positions count the residues as written; N and C are the ends. Square brackets hold non-standard residues; d marks the D form. Peptide text beside a SMILES is read from it. I, II: the chains in the order shown. Actinocin(9to1) = Cc1c2oc3c(C)ccc(C(=O)[*:1])c3nc-2c(C(=O)[*:2])c(N)c1=O; NMeV = CN[CH](C(=O)O)C(C)C; Sar = CNCC(=O)O

Compound	activity change, negative = inhibition
NC1CCC(N[C@@H]2C[C@H]2c2ccccc2)CC1 (some centres not stated)	-44.4%
NC(=O)N1CCC(CC(=O)N2CCC([C@H]3c4ncc(Br)cc4CCc4cc(Cl)cc(Br)c43)CC2)CC1	-87.3%
Cc1c2oc3c(C)ccc(C(=O)NC4C(=O)NC(C(C)C)C(=O)N5CCCC5C(=O)N(C)CC(=O)N(C)C(C(C)C)C(=O)OC4C)c3nc-2c(C(=O)NC2C(=O)NC(C(C)C)C(=O)N3CCCC3C(=O)N(C)CC(=O)N(C)C(C(C)C)C(=O)OC2C)c(N)c1=O (configuration not stated) (I: TVP[Sar][NMeV] / II: TVP[Sar][NMeV]; ester I:1-I:C, II:1-II:C; linker I:N-II:N via Actinocin(9to1); configuration not given here)	-91.5% [at 27.1 µM]
CC(O)[C@H]1CC[C@H]2[C@@H]3CC[C@@H]4C[C@@H](O)CC[C@]4(C)[C@H]3CC[C@]12C (some centres not stated)	-11.6% [at 114 µM]
CC[C@@]1(O)C(=O)OCc2c1cc1n(c2=O)Cc2cc3cc(O)ccc3nc2-1	-96.4%
O=C(/C=C/C=C/c1ccc2c(c1)OCO2)N1CCCCC1	-9.28%
CCC(NC(C)C)C(O)c1ccc(O)c(O)c1 (configuration not stated)	-5.57%

---

Here, each record is paired with measured max response data.
- Assayed Target: Retinoic acid receptor RXR-alpha (Homo sapiens) (UniProt P19793)
- Sequence (P19793 whole entry, looked up): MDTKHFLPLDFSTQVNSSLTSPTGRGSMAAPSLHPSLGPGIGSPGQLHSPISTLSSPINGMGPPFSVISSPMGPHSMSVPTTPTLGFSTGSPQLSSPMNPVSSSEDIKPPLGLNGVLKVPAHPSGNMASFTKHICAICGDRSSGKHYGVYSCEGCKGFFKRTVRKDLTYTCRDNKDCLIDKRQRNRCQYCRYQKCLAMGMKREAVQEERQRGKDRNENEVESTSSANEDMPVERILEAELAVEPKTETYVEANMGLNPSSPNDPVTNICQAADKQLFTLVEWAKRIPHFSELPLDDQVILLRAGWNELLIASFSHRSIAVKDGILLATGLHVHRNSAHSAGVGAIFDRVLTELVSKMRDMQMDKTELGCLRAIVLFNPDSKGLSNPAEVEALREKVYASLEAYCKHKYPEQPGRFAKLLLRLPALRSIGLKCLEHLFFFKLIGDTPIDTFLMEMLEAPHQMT
- Test Name: qHTS assay for small molecule antagonists of retinoid X receptor alpha signaling (AID 588546);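 further: cells stimulated with 9-cis-retinoic acid as agonist; on the % scale 0 is the no-effect control and ±100 the full control effect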
- Measurement Conditions: HEK293T RXRa-UAS-bla, beta-lactamase ratio, antagonist mode
Results filed as inconclusive are left out.

Input Smiles	Result Unit	max response
CCOP(=S)(OCC)SCSCC	%	-2.19
COC(=O)c1ccccc1C(=O)OC	%	2.81
CC(C)OC(=O)Nc1ccccc1	%	-6.43
CC(C)COC(=O)c1ccccc1C(=O)OCC(C)C	%	12.8
CC(=O)/C=C/c1ccccc1	%	11.5
Cc1ccc2cc3c(ccc4ccccc43)c3c2c1CC3	%	-30.8
CCOC(=O)c1ccccc1N	%	10.1
Oc1ccccc1Cl	%	10.4
Cc1ccc(C)c2ccccc12	%	3.54
O=Cc1ccccc1	%	10.9
